experiment: chemical genetic growth profiling, strain panel (AID 1159580);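 further: tested at 20 µM; growth read once vehicle control cultures reached saturation at 30 °C; 1 = growth at the plate median or of vehicle wells; lower values mean less growth of the strain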; details: S. cerevisiae deletion strains, growth OD, locus YCL011C, strain gbp2, active compounds read low
About 2,000 (36%) of roughly 5,500 compounds were called active. Another 18% or so got no clear call; they are omitted. The list shows a part of the results.
For each record, write down the corresponding normalized growth.

Please fill in: normalized growth reported for `CCOP(=S)(OCC)Oc1nc(Cl)c(Cl)cc1Cl` = 0.938 (inactive)

Please fill in: normalized growth reported for COC(=O)Nc1nc2ccc(S(=O)c3ccccc3)cc2[nH]1 (centres undefined) = 1.01 (inactive)

Please fill in: normalized growth reported for CC(C)=CCCC1(C)C=Cc2c(O)c3c(c(CC=C(C)C)c2O1)OC12C(=CC4CC1C(C)(C)OC2(C/C=C(/C)C(=O)O)C4=O)C3=O (centres undefined) = 0.835 (active)

Please fill in: normalized growth reported for `O=c1ccc2ccc(O)cc2o1` = 1.01 (inactive)

====

test: chemical genetic growth profiling, strain panel (AID 1159580);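 further: tested at 20 µM; growth read once vehicle control cultures reached saturation at 30 °C; 1 = growth at the plate median or of vehicle wells; lower values mean less growth of the strain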; settings: S. cerevisiae deletion strains, growth OD, locus YDR001C, strain nth1, active compounds read low
About 2,000 (36%) of roughly 5,500 compounds were called active. Not shown: some 18% with an inconclusive outcome. The list shows a part of the results.
TEST_READOUT: normalized growth
Respond numerically, and do not add a unit to the figure.

Please fill in: normalized growth reported for CC(=O)O[C@@H]1CC[C@@]2(C)C(CC[C@]3(C)C2CC=C2C4CC(C)(C)CC[C@]4(C(=O)O)CC[C@]23C)C1(C)C (stereo not given in full) = 1.01

Please fill in: normalized growth reported for COC(=O)C[C@H]1C(C)(C)C2(O)OC34CC2C(=O)[C@]1(C)C3CC[C@]1(C)C4=CC(=O)O[C@H]1c1ccoc1 (stereo not given in full) = 0.991

Please fill in: normalized growth reported for CC(C)=CCCC1(C)C=Cc2c(O)c3c(c(CC=C(C)C)c2O1)OC12C(=CC4CC1C(C)(C)OC2(C/C=C(/C)C(=O)O)C4=O)C3=O (stereo not given) = 0.952

Please fill in: normalized growth reported for `COc1cc(C(=O)O[C@H]2CC[C@@]3(C)[C@@H]4CC[C@H]5[C@]6(O)C[C@H](O)[C@@]7(O)[C@@H](CN8C[C@@H](C)CC[C@H]8[C@@]7(C)O)[C@]6(O)C[C@@]53O[C@]24O)cc(OC)c1OC` = 1.01

Please fill in: normalized growth reported for `Cc1cc(C(C)(C)C)c(O)c(C(C)(C)C)c1` = 0.978

====

assay: chemical genetic growth profiling, strain panel (AID 1159580);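 further: tested at 20 µM; growth read once vehicle control cultures reached saturation at 30 °C; 1 = growth at the plate median or of vehicle wells; lower values mean less growth of the strain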; conditions: S. cerevisiae deletion strains, growth OD, locus YBR021W, strain FUR4
Among all 5,500 compounds or so, about 2,000 (36%) were called active. Another 18% or so got no clear call; they are omitted. No stated cut-off is given here; in the data, active means normalized growth mostly below about 0.91 (no sharp cut-off); inconclusive means no clear call, values can overlap the other calls; inactive means mostly above about 0.92. The list shows a part of the results.
The reply should name one outcome from true for active, false for inactive

How was `CCCOc1ccccc1-c1nc2n[nH]nc2c(=O)[nH]1` classified in this test?
false

How was C/C=C(/C)C(=O)OC1CCC2(C)C3CCC4C5(O)CC(O)C6(O)C(CN7CC(C)CCC7C6(C)O)C5(O)CC42OC13O (centres undefined) classified in this test?
true

How was COC(=O)C[C@H]1C(C)(C)C2(O)OC34CC2C(=O)[C@]1(C)C3CC[C@]1(C)C4=CC(=O)O[C@H]1c1ccoc1 (some centres undefined) classified in this test?
false

How was `CC(C)(Oc1ccc(CCNC(=O)c2ccc(Cl)cc2)cc1)C(=O)O` classified in this test?
false

How was C[C@@H]1OC(O[C@H]2[C@H](O)[C@@H](O)[C@H](OC[C@H]3O[C@@H](OC(=O)[C@]45CCC(C)(C)CC4C4=CCC6[C@@]7(C)CC[C@H](OC8OC[C@H](O)[C@H](O)[C@H]8OC8O[C@@H](C)[C@H](O)[C@@H](O)[C@H]8O)[C@@](C)(CO)C7CC[C@@]6(C)[C@]4(C)CC5)[C@H](O)[C@@H](O)[C@@H]3O)O[C@@H]2CO)[C@H](O)[C@H](O)[C@H]1O (some centres undefined) classified in this test?
false

How was CC(C)=CCCC1(C)C=Cc2c(O)c3c(c(CC=C(C)C)c2O1)OC12C(CC4CC1C(C)(C)OC2(C/C=C(/C)C(=O)O)C4O)C3=O (centres undefined) classified in this test?
false

How was C[C@@H]1OC(O[C@H]2[C@H](OC(=O)[C@]34CCC(C)(C)CC3C3=CCC5[C@@]6(C)CC[C@H](OC7O[C@@H](C)[C@H](O[C@@H]8OC[C@@H](O)[C@H](O)[C@H]8O)[C@@H](O)[C@H]7O)C(C)(C)C6CC[C@@]5(C)[C@]3(C)CC4O)OC[C@H](O)[C@H]2O)[C@H](O)[C@H](O)[C@H]1O[C@@H]1O[C@H](CO)[C@@H](O)[C@H](O)[C@H]1O (some centres undefined) classified in this test?
false

How was C[C@H]1[C@H](C)CC[C@]2(CO)CC[C@]3(C)C(=CCC4[C@@]5(C)CC[C@H](O)C(C)(C)C5CC[C@]43C)[C@H]12 (some centres undefined) classified in this test?
false

How was C[C@@H]1CC[C@]2(C(=O)O)CC[C@]3(C)C(=CCC4[C@@]5(C)CC[C@H](O)C(C)(C)C5CC[C@]43C)C2[C@H]1C (some centres undefined) classified in this test?
false
